Biological target: T1, RasGAP SH2-SH3-SH2 construct (residues 174 to 444), WT (human, UniProt P20936 174-444, C236S | C261S | C372S | C402S)
T1 sequence: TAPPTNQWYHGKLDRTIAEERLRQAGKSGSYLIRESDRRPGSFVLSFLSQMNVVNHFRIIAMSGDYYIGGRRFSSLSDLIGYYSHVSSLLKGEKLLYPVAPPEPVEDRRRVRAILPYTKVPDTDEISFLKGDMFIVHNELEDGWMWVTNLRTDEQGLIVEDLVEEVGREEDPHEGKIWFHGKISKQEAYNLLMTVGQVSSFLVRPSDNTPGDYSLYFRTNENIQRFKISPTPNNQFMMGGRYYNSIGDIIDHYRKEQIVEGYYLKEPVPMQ
Assay: ITC; replicate, Figure S7 panel A
[ ]: non-standard residue; d: D form. pY = N[C@@H](Cc1ccc(OP(=O)(O)O)cc1)C(=O)O
measurement type: pKd
Answers are plain numbers, as −log10 of the molar value.

Data request: Read off the recorded pKd for Ac-DPSD[pY]AEPMDAVVKPRNEEENI[pY]SVPHDS-NH2 (p190RhoGAP (ARHGAP35), UniProt Q9NRY4, residues 1083-1111, 29 amino acids; also called p190RhoGAP peptide; ARHGAP35 peptide; source: synthetic peptide, bought: GenScript) [p190RhoGAP phosphopeptide, residues 1083 to 1111 (pY1087, pY1105)]
Data returned: 8.19
